// provenance: patent US20130052654A1

assay.target: APP-E2 (Homo sapiens, UniProt P05067)
Construct: APP-E2 comprising Ser295-Asp500 (numbering according to APP695); hexa-histidine tag (C, cleaved yes); made in house; host or cells: E. coli BL21(DE3)pRIL
Sequence (P05067 370-575): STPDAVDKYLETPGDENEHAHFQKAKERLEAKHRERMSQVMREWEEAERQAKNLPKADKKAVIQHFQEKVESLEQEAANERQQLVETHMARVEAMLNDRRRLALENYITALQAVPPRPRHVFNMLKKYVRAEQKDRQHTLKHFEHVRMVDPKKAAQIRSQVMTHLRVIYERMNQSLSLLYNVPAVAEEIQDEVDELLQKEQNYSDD
method.summary: Isothermal titration calorimetry (ITC) of metal binding to APP-E2
run.parameters: ITC, Hepes pH 7.3; weak sites; not statistically significant in curve fit; listed as zinc; read-out: KD2, Zn-APP-E2
pKd: −log10 of the molar value.
measured.attribute: pKd

Recall the reported pKd of `[Zn+2]` on APP-E2 (Homo sapiens, UniProt P05067) and write it down.
≥ 2.59

###

assay.target: APP-E2 (Homo sapiens, UniProt P05067)
Construct: APP-E2 comprising Ser295-Asp500 (numbering according to APP695); hexa-histidine tag (C, cleaved yes); made in house; host or cells: E. coli BL21(DE3)pRIL
method.summary: Isothermal titration calorimetry (ITC) of metal binding to APP-E2
run.parameters: intersection point with the ordinate; 15-75 mM Tris; read-out: KD from linear extrapolation of apparent KD as function of Tris concentration
measured.attribute: Kd

Using known records, supply Kd for `[Cu+2]`
~20 nM

###

assay.target: APP-E2 (Homo sapiens, UniProt P05067)
Construct: APP-E2 comprising Ser295-Asp500 (numbering according to APP695); hexa-histidine tag (C, cleaved yes); made in house; host or cells: E. coli BL21(DE3)pRIL
method.summary: Isothermal titration calorimetry (ITC) of metal binding to APP-E2
run.parameters: minimal model of a Cu2+-Tris 1:1 complex; upper (weakest) limit; listed as copper; read-out: KD corrected for Tris competition
measured.attribute: Kd

Using known records, supply Kd for `[Cu+2]`
≤ 13 nM

###

assay.target: APP-E2 (Homo sapiens)
Construct: APP-E2 comprising Ser295-Asp500 (numbering according to APP695); hexa-histidine tag (C, cleaved yes); made in house; host or cells: E. coli BL21(DE3)pRIL
method.summary: Isothermal titration calorimetry (ITC) of metal binding to APP-E2
run.parameters: minimal model of a Cu2+-Tris 1:1 complex; upper (weakest) limit; read-out: KD corrected for Tris competition
measured.attribute: Kd

Using known records, supply Kd for [Cu+2] [Cu^2+, copper]
< 13 nM
